From: ChEMBL document CHEMBL4251631

Entries and their selectivity ratio
Assay: Selectivity index, ratio of IC50 for human MRC5 cells to IC50 for human U87MG cells
Type: toxicity
Details: MRC5 cells and U87MG cells, read-out: Ratio IC50

These recorded examples may help you get a feel for the data.
compound	propertyName	observedMeasurement
CCOC(=O)C[n+]1cccc(OP(=O)([O-])OC[C@H]2O[C@@H](n3cc(F)c(=O)[nH]c3=O)C[C@@H]2OC(=O)c2ccccc2)c1	selectivity ratio	15
CCCCCCCCCc1ccc(OP(=O)(O)OC[C@H]2O[C@@H](n3cc(F)c(=O)[nH]c3=O)C[C@@H]2OC(=O)c2ccccc2)cc1	selectivity ratio	6
O=c1[nH]c(=O)n([C@H]2C[C@H](O)[C@@H](COP(=O)(O)Oc3ccc4ncccc4c3)O2)cc1F	selectivity ratio	< 1
C[N+]1(C)CCC(OP(=O)([O-])OC[C@H]2O[C@@H](n3cc(F)c(=O)[nH]c3=O)C[C@@H]2OC(=O)c2ccccc2)CC1	selectivity ratio	7
C[N+]1(Cc2ccccc2)C2CCC1CC(OP(=O)([O-])OC[C@H]1O[C@@H](n3cc(F)c(=O)[nH]c3=O)C[C@@H]1OC(=O)c1ccccc1)C2 (stereo partly specified)	selectivity ratio	2
O=C(O[C@H]1C[C@H](n2cc(F)c(=O)[nH]c2=O)O[C@@H]1COP(=O)([O-])Oc1ccc[n+](Cc2ccccc2)c1)c1ccccc1	selectivity ratio	58

Problem: Which measured selectivity ratio value corresponds to C[n+]1cccc(OP(=O)([O-])OC[C@H]2O[C@@H](n3cc(F)c(=O)[nH]c3=O)C[C@@H]2OC(=O)c2ccccc2)c1 ?
Solution: 10

Problem: Also O=c1[nH]c(=O)n([C@H]2C[C@H](O)[C@@H](COP(=O)(O)Oc3cccnc3)O2)cc1F , if possible.
Solution: < 1

Problem: Also C[N+](C)(CCOP(=O)([O-])OC[C@H]1O[C@@H](n2cc(F)c(=O)[nH]c2=O)C[C@@H]1OC(=O)c1ccccc1)Cc1ccccc1 , if possible.
Solution: 1

Problem: Also O=C(O[C@H]1C[C@H](n2cc(F)c(=O)[nH]c2=O)O[C@@H]1COP(=O)(O)Oc1cccnc1)c1ccccc1 , if possible.
Solution: 22

Problem: Also CCCCCCCCCC[n+]1cccc(OP(=O)([O-])OC[C@H]2O[C@@H](n3cc(F)c(=O)[nH]c3=O)C[C@@H]2OC(=O)c2ccccc2)c1 , if possible.
Solution: 21

Problem: Also C[N+](C)(C)CCOP(=O)([O-])OC[C@H]1O[C@@H](n2cc(F)c(=O)[nH]c2=O)C[C@@H]1OC(=O)c1ccccc1 , if possible.
Solution: < 1

Problem: Also O=C(O[C@H]1C[C@H](n2cc(F)c(=O)[nH]c2=O)O[C@@H]1COP(=O)(O)Oc1ccccc1)c1ccccc1 , if possible.
Solution: 2

Problem: Also CCOC(=O)C[n+]1cccc2cc(OP(=O)([O-])OC[C@H]3O[C@@H](n4cc(F)c(=O)[nH]c4=O)C[C@@H]3OC(=O)c3ccccc3)ccc21 , if possible.
Solution: 66

Problem: Also O=c1[nH]c(=O)n([C@H]2C[C@H](O)[C@@H](COP(=O)(O)Oc3ccccc3)O2)cc1F , if possible.
Solution: 1

Problem: Also O=C(O[C@H]1C[C@H](n2cc(F)c(=O)[nH]c2=O)O[C@@H]1COP(=O)(O)Oc1ccc2ncccc2c1)c1ccccc1 , if possible.
Solution: 1
